Task for the reader: assign each of the following molecules its reported MIC.
System: S. aureus (MRSA) -390
Test: Anti-bacterial activity test 1: minimum growth inhibiting concentration (MIC)
Format: cell-based
Conditions: Staphylococcus aureus, strain -390 (PRC series), read-out: Anti-bacterial activity against MRSA MIC
// return numeric value only (unit: µg/mL, not printed)

In: Recall the recorded MIC for Clc1ccc(C(Cn2ccnc2)OCc2ccccc2Cl)cc1 (centres unmarked) [p-Cl, H, o-Cl, H] with S. aureus (MRSA) -390 and state it.
Out: 50

In: Recall the recorded MIC for Clc1ccccc1COC(Cn1ccnc1)c1ccccc1Cl (centres unmarked) [o-Cl, H, o-Cl, H] with S. aureus (MRSA) -390 and state it.
Out: 25

In: Recall the recorded MIC for Clc1ccc(COC(Cn2ccnc2)c2ccc(Cl)cc2)cc1 (centres unmarked) [p-Cl, H, p-Cl, H] with S. aureus (MRSA) -390 and state it.
Out: 50

In: Recall the recorded MIC for Clc1ccc(COC(Cn2ccnc2)c2ccccc2Cl)cc1 (centres unmarked) [o-Cl, H, p-Cl, H] with S. aureus (MRSA) -390 and state it.
Out: 25

In: Recall the recorded MIC for Clc1ccccc1C(Cn1ccnc1)OCc1ccccc1 (centres unmarked) [o-Cl, H, H, H] with S. aureus (MRSA) -390 and state it.
Out: 100
